Parameter pIC50: see the listing below.
# tgt: NLRP3 (Homo sapiens (Human))
# Sequence (Q96P20 whole entry): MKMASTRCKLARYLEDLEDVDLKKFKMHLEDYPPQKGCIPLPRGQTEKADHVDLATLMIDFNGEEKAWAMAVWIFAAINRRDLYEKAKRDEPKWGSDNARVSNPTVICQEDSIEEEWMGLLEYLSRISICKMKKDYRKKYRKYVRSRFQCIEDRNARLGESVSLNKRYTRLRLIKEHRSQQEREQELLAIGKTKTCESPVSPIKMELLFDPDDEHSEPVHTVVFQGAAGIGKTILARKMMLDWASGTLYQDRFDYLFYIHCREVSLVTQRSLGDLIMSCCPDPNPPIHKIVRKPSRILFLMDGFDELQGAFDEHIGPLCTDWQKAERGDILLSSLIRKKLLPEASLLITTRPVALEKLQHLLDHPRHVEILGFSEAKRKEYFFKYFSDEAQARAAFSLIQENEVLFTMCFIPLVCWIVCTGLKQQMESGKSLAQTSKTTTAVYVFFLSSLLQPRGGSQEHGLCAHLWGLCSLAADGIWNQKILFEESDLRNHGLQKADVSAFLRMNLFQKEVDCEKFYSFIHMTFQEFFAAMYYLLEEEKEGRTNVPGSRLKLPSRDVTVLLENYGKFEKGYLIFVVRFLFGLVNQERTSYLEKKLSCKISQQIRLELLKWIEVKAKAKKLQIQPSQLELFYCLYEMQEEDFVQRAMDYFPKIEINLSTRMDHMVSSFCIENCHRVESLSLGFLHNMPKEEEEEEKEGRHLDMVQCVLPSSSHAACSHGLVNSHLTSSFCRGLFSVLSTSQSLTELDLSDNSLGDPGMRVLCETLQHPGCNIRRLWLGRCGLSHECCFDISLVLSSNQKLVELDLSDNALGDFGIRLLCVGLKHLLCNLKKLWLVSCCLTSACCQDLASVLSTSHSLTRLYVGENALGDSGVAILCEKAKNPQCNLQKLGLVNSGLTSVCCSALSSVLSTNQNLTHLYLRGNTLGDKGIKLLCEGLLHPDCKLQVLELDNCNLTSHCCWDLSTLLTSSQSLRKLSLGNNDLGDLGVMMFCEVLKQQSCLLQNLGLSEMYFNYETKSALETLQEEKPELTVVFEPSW
# protocol-text: Human whole blood IL1β release assay (LPS + nigericin)
# Assay type: cell-based
# details: human whole blood, 1 μg/ml LPS, nigericin, IL-1β release; read-out: HWB IC50
pIC50: −log10 of the molar value. Where a name gives a salt, the structure may show the parent alone.
property: pIC50

| molecule | measured-value |
| --- | --- |
| O=C(Nc1c2c(cc3c1CCC3)CCC2)NS(=O)(=O)C1CN(C(=O)OCc2ccccc2)C1 [Example 71, potassium salt] | < 5.00 |
| CC1(C)CCC1N1CC(S(=O)(=O)NC(=O)Nc2c3c(cc4c2CCC4)CCC3)C1 (stereo not shown) [Example 124, potassium salt] | 5.00 to 6.00 |
| O=C(Nc1c2c(cc3c1CCC3)CCC2)NS(=O)(=O)C1CCN(C(=O)C(F)(F)F)CC1 [Example 8, potassium salt] | > 6.00 |
| O=C(Nc1c2c(cc3c1CCC3)CCC2)NS(=O)(=O)C1CN(Cc2cccnc2)C1 [Example 90, potassium salt] | > 6.00 |

----------
# protocol-text: PK, intravenous administration
# Format: in vivo, male Sprague Dawley rats
# details: male, Sprague Dawley, rat, in vivo, iv, 0.66 mg/kg
Where a name gives a salt, the structure may show the parent alone.

| compound | AUC |
| --- | --- |
| CC(C)N1[C@@H]2CC[C@H]1C[C@@H](S(=O)(=O)NC(=O)Nc1c3c(cc4c1CCC4)CCC3)C2 [Example 45, potassium salt] | 703 ng·h/mL |

----------
# tgt: NLRP3 (Homo sapiens (Human))
# protocol-text: THP-1 cells pyroptosis assay (LPS + nigericin, resazurin read-out)
# Type: cell-based
# details: 1 μg/ml LPS, 5 μM nigericin
pIC50: −log10 of the molar value. Where a name gives a salt, the structure may show the parent alone.
property: pIC50

| molecule | measured-value |
| --- | --- |
| COC1CN(C)CC1S(=O)(=O)NC(=O)Nc1c2c(cc3c1CCC3)CCC2 (stereo not shown) [Example 149, potassium salt] | 5.00 to 6.00 |
| CCN1CCCC(S(=O)(=O)NC(=O)Nc2c3c(cc4c2CCC4)CCC3)C1 (stereo not shown) [Example 9, potassium salt] | > 6.00 |
| C#CCN1CCC(S(=O)(=O)NC(=O)Nc2c3c(cc4c2CCC4)CCC3)CC1 [Example 2, potassium salt] | 5.00 to 6.00 |
| O=C(Nc1c2c(cc3c1CCC3)CCC2)NS(=O)(=O)C1CN(CC2CCCCC2)C1 [Example 89, potassium salt] | 5.00 to 6.00 |

----------
# protocol-text: PK, intravenous administration
# Assay type: in vivo, male Sprague Dawley rats
# details: male, Sprague Dawley, plasma; rat, intravenous, dose 1 mg/kg; read-out: Cl
Where a name gives a salt, the structure may show the parent alone.
Tick t if clearance is 8 mL/min/kg or greater. Tick f if clearance is less than 8 mL/min/kg.

| compound | category-label |
| --- | --- |
| COc1cc(-c2ccc3c(c2NC(=O)NS(=O)(=O)c2cn(C(C)C)c(=O)cn2)CCC3)ccn1 | t |
| CCN1CCCC(S(=O)(=O)NC(=O)Nc2c3c(cc4c2CCC4)CCC3)C1 (centres unmarked) [Example 9, potassium salt] | f |
| CC(C)N1CCCC(S(=O)(=O)NC(=O)Nc2c3c(cc4c2CCC4)CCC3)C1 (centres unmarked) [Example 31, potassium salt] | f |
| CN1CCC(S(=O)(=O)NC(=O)Nc2c3c(cc4c2CCC4)CCC3)CC1 [Example 1, potassium salt] | t |

These measurements were taken from patent US20250115591A1.
